Where do these numbers come from? They come from ChEMBL document CHEMBL1201862.

Tested on: U-251
Test: NCI tumour cell line growth inhibition, 48 h
Active and inactive are the calls of the source. Rule as the data show it: active = GI50 up to about 1.1 µM and inactive = higher.
What GI50 was measured for each of the following?

Field: example entries. Status: answers known.
COc1ccc(-c2cc(-c3ccccc3)nc(/N=C\c3ccccc3)n2)c(O)c1: 10.3 µM (inactive)
O=C(CC(C(=O)c1cccs1)c1ccsc1)c1cccs1 (configuration not stated): > 100 µM (inactive)
CC(C)CC1NC(=O)CCC(NC(=O)C(Cc2ccc(O)cc2)NC(=O)OCc2ccccc2)C(=O)NC(Cc2ccccc2)C(=O)NC(Cc2ccccc2)NC1=O (configuration not stated): > 100 µM (inactive)
O=C(c1ccccc1)C(Nc1ccc2ccccc2c1)c1ccccc1 (configuration not stated): 21.9 µM (inactive)
Oc1nnc(CNc2ccc(Cl)cc2Cl)c2ccccc12: 18.2 µM (inactive)

Batch of 2 compounds: report GI50 for each.
1. O=C(O)CCCNS(=O)(=O)c1ccccc1
2. COc1ccc(/C(C)=N/OC(=O)c2c(-c3ccccc3Cl)noc2C)cc1CN1CCOCC1

["> 100 µM (inactive)", "25.4 µM (inactive)"]
